src = paper PMC12316777

# target_entity: SARS-CoV-2 nsp10 (Severe acute respiratory syndrome coronavirus 2)
parameter_measured: Kd (µM)
# number only, unit µM dropped from output

Query: Enter reported Kd observed with SARS-CoV-2 nsp10 (Severe acute respiratory syndrome coronavirus 2) for CCP(CC)CC.[Au+].[Cl-]
Reply: 6.55

====

# target_entity: SARS-CoV-2 nsp14 (Severe acute respiratory syndrome coronavirus 2)
# run_description: Metal displacement analysis (equilibrium dialysis, ICP-MS), nsp14
# Format: binding
# setup_conditions: fit to specific binding plot; read-out: dissociation constant (Kd), nsp14
parameter_measured: Kd (µM)
# number only, unit µM dropped from output

Query: Enter reported Kd observed with SARS-CoV-2 nsp14 (Severe acute respiratory syndrome coronavirus 2) for CCP(CC)CC.[Au+].[Cl-]
Reply: 6.54
